Each entry below lists one item and its recorded TF binding intensity value.
Target: ETS1 (UniProt P14921)
Sequence: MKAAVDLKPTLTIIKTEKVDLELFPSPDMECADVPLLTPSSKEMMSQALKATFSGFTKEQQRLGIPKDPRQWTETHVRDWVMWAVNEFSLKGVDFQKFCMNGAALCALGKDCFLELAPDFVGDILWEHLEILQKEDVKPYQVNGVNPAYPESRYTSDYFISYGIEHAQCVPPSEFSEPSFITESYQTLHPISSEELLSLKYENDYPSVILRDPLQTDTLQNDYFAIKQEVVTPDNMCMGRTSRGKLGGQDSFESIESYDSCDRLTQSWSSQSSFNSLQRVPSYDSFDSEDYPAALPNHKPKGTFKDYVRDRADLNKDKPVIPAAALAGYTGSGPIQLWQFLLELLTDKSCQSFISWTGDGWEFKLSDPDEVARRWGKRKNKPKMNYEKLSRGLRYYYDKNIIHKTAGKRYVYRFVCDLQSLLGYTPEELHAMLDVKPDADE
Assay: TF binding intensity (PBM fluorescence), negative control probe (arbitrary fluorescence units); higher = stronger binding

{"record-sequence": "ACTGCTTTTTCACACAGCATCTTAATTGGCCTGTTT (protein concentration 10 nM)", "measurement": 118}
{"record-sequence": "GTGTCTGCCTCATTGGCGAAGGCCAGCCTCTGAGCC (protein concentration 10 nM)", "measurement": 140}
{"record-sequence": "GGCTGAGGTGTCTGTGTTGGCAGCAGGAGCCTCTCT (protein concentration 10 nM)", "measurement": 128}
{"record-sequence": "TGGAAAATAATATTTCAAGACCATAATATGGCTGCT (protein concentration 10 nM)", "measurement": 100}
{"record-sequence": "TAAATCAAAAGATGACCAAGCTGGAGAGAAAAGTGA (protein concentration 10 nM)", "measurement": 129}
{"record-sequence": "ACCTGTGAATAGACTGACCAAATGCAAGCTGGACCA (protein concentration 10 nM)", "measurement": 111}

Q. Please indicate TF binding intensity recorded for GAAAACACTAGCGTGACCTCAACAACTAAGATTAAA (protein concentration 1 nM)
A. 490

Q. Supply TF binding intensity value. Item: TGGACTATATCAAGTGTGAACGATCATACTTGTTAT (protein concentration 10 nM)
A. 124

Q. For GAAATATGACAAAAAACCCCTATCCTATGATAAGTC (protein concentration 10 nM) , write its TF binding intensity.
A. 146

Q. Consider the sequence CTCCCTCTCTCCCTCCCTCCCTCCCTCCCTCCCTTC (protein concentration 10 nM) . State its measured TF binding intensity.
A. 230

Q. Respond only with TF binding intensity recorded for GGTAATAGTTACTGCTGTGGTCTGAATGTTTGTGTC (protein concentration 1 nM)
A. 555

Q. Tell me TF binding intensity reported for CCCCAGTAGAAGCCACCCAGCCTTTTGTTTGTTTTC (protein concentration 10 nM)
A. 133

Q. Please supply the value of reported TF binding intensity for the item ACCTGGGTCTCTGACAGACACCCCAAACTTCAGTTC (protein concentration 10 nM)
A. 102

Q. Provide TF binding intensity value for the following sequence: CCCCTCCAGACTCCCCTGACCCAGGGTGGAGGACAT (protein concentration 10 nM)
A. 161

Q. Supply recorded TF binding intensity for CCAGTGCCCTTGAAATGAAATGGGACTTGCAAGGAG (protein concentration 10 nM) here.
A. 121

Q. Given the sequence ATAAGCCAATTTTTTTTACATTTATGAAATGAGAGA (protein concentration 10 nM) , write its reported TF binding intensity.
A. 105

Q. Given GATGTGGCCTATAGGGATCCTTCACTTAGGCATGAG (protein concentration 10 nM) , respond with its TF binding intensity.
A. 121

###

Target: RUNX1 (UniProt Q01196)
Sequence (Q01196 whole entry): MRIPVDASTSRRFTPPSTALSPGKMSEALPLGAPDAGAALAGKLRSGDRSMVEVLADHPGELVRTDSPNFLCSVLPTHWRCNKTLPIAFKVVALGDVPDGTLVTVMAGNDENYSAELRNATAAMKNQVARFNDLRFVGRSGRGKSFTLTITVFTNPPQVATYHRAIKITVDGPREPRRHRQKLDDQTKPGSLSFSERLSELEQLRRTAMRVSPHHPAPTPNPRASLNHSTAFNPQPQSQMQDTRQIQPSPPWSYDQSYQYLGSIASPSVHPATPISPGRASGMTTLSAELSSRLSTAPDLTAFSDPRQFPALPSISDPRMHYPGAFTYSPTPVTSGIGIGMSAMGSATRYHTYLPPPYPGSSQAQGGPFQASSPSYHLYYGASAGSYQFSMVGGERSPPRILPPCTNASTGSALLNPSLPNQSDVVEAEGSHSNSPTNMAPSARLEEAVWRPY
Assay: RUNX1 binding intensity (PBM fluorescence) in presence of ETS1, normalised to RUNX1-only experiment (arbitrary fluorescence units); higher = stronger binding
Conditions: RUNX1 concentration 2 nM; ETS1 concentration 25 nM
Think of 1000 as a floor: if RUNX1 binding intensity stands on it or above, it is t; beneath it, f.

For orientation, consider the following solved cases.
{"record-sequence": "AGCTGAAGGGCAGGATGTGGTTTCAGCATTCGGTGA", "category-label": "t"}
{"record-sequence": "CCCCTCAGCTTCCGGGTGCTGCGGCCGCGGCCGAGA", "category-label": "t"}
{"record-sequence": "TCTAGTAAAAGAGGAAGTTCTTAACCACATTTCCAT", "category-label": "t"}
{"record-sequence": "TGACACCAGCCCTGAGGATGTGGTTCATCCTCCCAC", "category-label": "f"}
{"record-sequence": "CTCCGCCAGCCACCGGAACTGCGGCCCAGCAAAAAG", "category-label": "f"}
{"record-sequence": "AAGTTTTGGGTTTTCCGCCCACAGCCGCCGAAAGTG", "category-label": "t"}
{"record-sequence": "TACAGCTTCCTTCACCCCACTTGTGGCCTGGGTTAC", "category-label": "f"}
{"record-sequence": "GACACAAGACAGTTTCCGTCAGTGGTTAAGCCCTAA", "category-label": "t"}

Q. Is it the case that CTTCTGAGAGGAGGATGTGGTCAGATACCTACAAAT has RUNX1 binding intensity reaching or exceeding 1000?
A. t

Q. Check if RUNX1 binding intensity >= 1000 (inclusive). Item: CCAGCGGAAAGCCGGTCAGGGGGAACCGCGGCGGGG
A. f

Q. Test whether the sequence TGGGGTGGTGACATGGGATGTGGTTTTGGGGTTGCA records RUNX1 binding intensity of 1000 or higher.
A. t

Q. Quick check: does TCTGTGAAAAAGGATGTGCGGTTATGGAGGAGAACT have RUNX1 binding intensity greater than or equal to 1000?
A. t

Q. Can CCATTTCCCGCCTACCGACCTGCTGCACCGCACGGA be said to have RUNX1 binding intensity at or above 1000?
A. t

###

Catalogue of sequences with associated ETS1 binding intensity
Molecular target: ETS1 (UniProt P14921)
Sequence: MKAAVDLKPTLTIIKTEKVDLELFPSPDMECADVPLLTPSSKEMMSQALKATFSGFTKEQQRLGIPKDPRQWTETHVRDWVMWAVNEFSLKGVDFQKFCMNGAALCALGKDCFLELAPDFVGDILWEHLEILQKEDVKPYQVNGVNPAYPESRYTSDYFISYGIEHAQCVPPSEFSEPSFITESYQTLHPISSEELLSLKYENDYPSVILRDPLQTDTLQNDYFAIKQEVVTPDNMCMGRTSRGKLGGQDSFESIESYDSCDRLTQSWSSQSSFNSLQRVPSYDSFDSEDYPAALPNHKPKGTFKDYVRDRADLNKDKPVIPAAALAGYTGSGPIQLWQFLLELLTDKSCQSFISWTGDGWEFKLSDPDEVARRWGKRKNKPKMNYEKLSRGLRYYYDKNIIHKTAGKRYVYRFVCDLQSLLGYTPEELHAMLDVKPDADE
Test: ETS1 binding intensity (PBM fluorescence) in presence of RUNX1, normalised to ETS1-only experiment (arbitrary fluorescence units); higher = stronger binding
Details: ETS1 concentration 1 nM; RUNX1 concentration 25 nM

{"record-sequence": "CACCTGCGGAAGTCACAGGGAAGCCACAGAGAGATG", "subject-of-test": "ETS1 (UniProt P14921)", "ETS1 binding intensity": 1160}
{"record-sequence": "ATGACTTCGAGGAAGTCTTCAGAAACCACAGGCTGA", "subject-of-test": "ETS1 (UniProt P14921)", "ETS1 binding intensity": 1430}

Q. Report ETS1 binding intensity, nothing else, for this sequence: TTTATCCTTATTTCCTGGCTTCGCCCACAAGCACAG
A. 625

Q. # return recorded ETS1 binding intensity for entry GACTGCACTTCCTCTGCTTCGAGGTCGGTGGTTAGC
A. 653

Q. Identify ETS1 binding intensity associated with the sequence GAGATAGTCTGGAGGGGAAGTGGTTATAAGTGATAA
A. 1290

Q. Fill in reported ETS1 binding intensity for this entry: ACCAGCAACGGAAATCAGATCTCTTGTGGTTATTAT
A. 7160

Q. Note ETS1 binding intensity for the sequence shown: CTCCCCCTTTTTTTCCTGTGGTTTCATTGCATGTTG
A. 566

Q. // Input: GATCTGCTTGGCTTCCTGTGGTCGCTGACTCACAGT . Output its ETS1 binding intensity only.
A. 1010

Q. Identify the reported ETS1 binding intensity for the following entry. AGGCCGTGCAGGAAATGAGACCCACAGCCACGTCAC
A. 2180

Q. Output measured ETS1 binding intensity for this item: CTGACAGTTACTTCCTGTCTTTGTGGGCGATTGTGA
A. 4620
